System: organic anion transporters of J774 cells
Format: cell-based, mouse
Conditions: 30 minutes, J774 cells; read-out: ED50 for enhancing intracellular retention of norfloxacin
readout-label: EC50 (µM)
Numbers only, in µM.

Looking for the measured EC50 of CCCN(CCC)S(=O)(=O)c1ccc(C(=O)O)cc1 , can you help? 500

====

Tested on: organic anion transporters of J774 cells
Assay type: cell-based, mouse
Settings: J774 cells; read-out: ED50 for enhancing intracellular accumulation of [3H]NFX
readout-label: EC50 (µM)
Answers are plain numbers, in µM.

Looking for the measured EC50 of Cc1ccc(C)c(OCCCC(C)(C)C(=O)O)c1 , can you help? 15

====

Assay: Toxicity to J774 cells
Format: cell-based
Details: mouse, read-out: concentrations toxic to the cells
readout-label: MCC

Looking for the measured MCC of O=C1C(CC[S+]([O-])c2ccccc2)C(=O)N(c2ccccc2)N1c1ccccc1 (stereo not shown) [sulfinpyrazone] , can you help? > 2.5 mM
